Each item that follows carries a reported pIC50.
target: one or more of HDAC4, HDAC5, HDAC6, HDAC7, HDAC8, HDAC9 and HDAC11; experiment: Inhibition of histone deacetylase enzymatic activity (fluorogenic Boc-Lys(Ac)-AMC / Boc-Lys(trifluoroacetyl)-AMC substrate); settings: against one or more of HDAC4, HDAC5, HDAC6, HDAC7, HDAC8, HDAC9 and HDAC11
pIC50: −log10 of the molar value.

What is its pIC50 for one or more of HDAC4, HDAC5, HDAC6, HDAC7, HDAC8, HDAC9 and HDAC11? Entry: O=C(NO)c1ccccc1-n1cccc1 [Compound 21, N-hydroxy-2-(lH-pyrrol-1-yl)benzamide]
5.30 to 6.12

Any idea what pIC50 came out for CN(Cc1ccccc1)Cc1cc(-c2ccccc2)c(C(=O)NO)s1 on one or more of HDAC4, HDAC5, HDAC6, HDAC7, HDAC8, HDAC9 and HDAC11?
> 6.60

What pIC50 appears in the records for this compound with one or more of HDAC4, HDAC5, HDAC6, HDAC7, HDAC8, HDAC9 and HDAC11? COc1ccc(S(=O)(=O)Nc2ccc3sc(C(=O)NO)c(-c4ccccc4)c3c2)cc1
6.12 to 6.30

What value of pIC50 on one or more of HDAC4, HDAC5, HDAC6, HDAC7, HDAC8, HDAC9 and HDAC11 does O=C(Cc1ccc(C(F)(F)F)cc1)Nc1ccc(C(=O)NO)c(-c2ccccc2)c1 have?
> 6.60

Reported pIC50 for one or more of HDAC4, HDAC5, HDAC6, HDAC7, HDAC8, HDAC9 and HDAC11, given Cc1cscc1-c1ccccc1C(=O)NO ?
5.30 to 6.12

Any idea what pIC50 came out for O=C(NO)c1sc(-c2ccc3c(c2)CCO3)nc1-c1ccccc1 on one or more of HDAC4, HDAC5, HDAC6, HDAC7, HDAC8, HDAC9 and HDAC11?
5.30 to 6.12

Lab note: need pIC50 with one or more of HDAC4, HDAC5, HDAC6, HDAC7, HDAC8, HDAC9 and HDAC11 for entry O=C(NO)c1sc(-c2ccccc2)cc1-c1ccccc1 [Compound 86] , please look it up.
> 6.60

Value wanted: pIC50 (one or more of HDAC4, HDAC5, HDAC6, HDAC7, HDAC8, HDAC9 and HDAC11) of entry CS(=O)(=O)N1CCC(c2nc(-c3ccccc3)c(C(=O)NO)s2)CC1
> 6.60

Next:
Query for one or more of HDAC4, HDAC5, HDAC6, HDAC7, HDAC8, HDAC9 and HDAC11: what pIC50 does the record show for O=C(NO)c1sc(C(c2ccccc2)c2ccccc2)nc1-c1ccccc1 ?
> 6.60

Form field - read-out: pIC50; system: one or more of HDAC4, HDAC5, HDAC6, HDAC7, HDAC8, HDAC9 and HDAC11; submitted item: Cc1cscc1-c1cccc(-c2ccccc2C(=O)NO)c1
6.12 to 6.30

# returns recorded pIC50 (system: one or more of HDAC4, HDAC5, HDAC6, HDAC7, HDAC8, HDAC9 and HDAC11) for O=C(NO)c1sc(-c2ccc(OCCN3CCOCC3)cc2)nc1-c1ccccc1
> 6.60

----------
molecular target: one or more of HDAC4, HDAC5, HDAC6, HDAC7, HDAC8, HDAC9 and HDAC11; experiment: Inhibition of histone deacetylase enzymatic activity (fluorogenic Boc-Lys(Ac)-AMC / Boc-Lys(trifluoroacetyl)-AMC substrate); details: against one or more of HDAC4, HDAC5, HDAC6, HDAC7, HDAC8, HDAC9 and HDAC11
Listed below: IC50 values for each entry.

What does the record list as IC50 for O=C(NO)c1sc2ccc(NS(=O)(=O)c3ccccc3)cc2c1-c1ccccc1 [Compound 126] ?
0.5 to 0.75 µM

Sample O=C(NO)c1sc(-c2ccncc2)nc1-c1ccccc1 [Compound 122] — what was its IC50?
< 0.25 µM

GET /values?readout=IC50&item= CN(C)c1ccc(-c2ccc(C(=O)NO)c(-c3ccccc3)c2)cc1 [Compound 116]
< 0.25 µM

Continuing:
Field request: IC50 | item: COc1cccc(-c2cc(F)ccc2C(=O)NO)c1 [Compound 98]
0.5 to 0.75 µM

What does the record list as IC50 for COc1cccc(-c2ccccc2C(=O)NO)c1 [Compound 19] ?
0.75 to 5 µM

----------
target: one or more of HDAC4, HDAC5, HDAC6, HDAC7, HDAC8, HDAC9 and HDAC11; assay: Inhibition of histone deacetylase enzymatic activity (fluorogenic Boc-Lys(Ac)-AMC / Boc-Lys(trifluoroacetyl)-AMC substrate); conditions: against one or more of HDAC4, HDAC5, HDAC6, HDAC7, HDAC8, HDAC9 and HDAC11
pIC50: −log10 of the molar value.
measure.name: pIC50

Quick one: pIC50 of O=C(NO)c1sc(Cc2ccccc2)cc1-c1ccccc1 ?
> 6.60

What pIC50 value was documented for this molecule, O=C(NO)c1ccc(-c2ccccc2)cc1-c1ccccc1 ?
> 6.60

Please look up its pIC50: O=C(NO)c1sc(-c2cccs2)nc1-c1ccccc1
6.12 to 6.30

Report pIC50 for CCOC(=O)N1CCC(c2nc(-c3ccccc3)c(C(=O)NO)s2)CC1 please.
> 6.60

// query pIC50 value for entry O=C(NO)c1cnc(-c2ccccc2)nc1-c1cccc(F)c1
6.30 to 6.60

Next:
Requested read-out: pIC50. Entry: O=C(Nc1ccccc1Oc1ccccc1)c1ccc(C(=O)NO)c(-c2ccccc2)c1
6.12 to 6.30

I'd like to know its pIC50. The molecule in question is O=C(NO)c1ccccc1-c1cccc([N+](=O)[O-])c1
5.30 to 6.12

// lookup pIC50 for O=C(NCc1ccccc1)OCc1cc(-c2ccccc2)c(C(=O)NO)s1
> 6.60

I am curious: what pIC50 value has been reported for Cc1cscc1-c1ccc(C(=O)NO)c(-c2cscc2C)c1 ?
> 6.60

----------
Each item that follows carries a reported IC50.
target: one or more of HDAC4, HDAC5, HDAC6, HDAC7, HDAC8, HDAC9 and HDAC11; test: Inhibition of histone deacetylase enzymatic activity (fluorogenic Boc-Lys(Ac)-AMC / Boc-Lys(trifluoroacetyl)-AMC substrate); settings: against one or more of HDAC4, HDAC5, HDAC6, HDAC7, HDAC8, HDAC9 and HDAC11

Reported IC50, compound CN(Cc1ccccc1)C(=O)OCc1cc(-c2ccccc2)c(C(=O)NO)s1 [Compound 181] : ____
< 250 nM

Which IC50 value belongs to COc1cccc(-c2ccc(C(=O)NO)c(-c3cccc(OC)c3)c2)c1 [Compound 50] ?
750 to 5000 nM

Given the compound O=C(NO)c1cn(-c2ccccc2)nc1-c1ccccc1 [Compound 32] , what is its reported IC50?
500 to 750 nM

Further cases:
Entry under review: O=C(NO)c1sc(C2CCN(Cc3ccccc3)CC2)nc1-c1ccccc1 [Compound 132] . Reported IC50?
< 250 nM

I'd like to know its IC50. The compound in question is O=C(NO)c1cn(-c2ccccc2)nc1-c1ccc(F)cc1 [Compound 108]
750 to 5000 nM

----------
# pIC50 annotations
Molecular target: one or more of HDAC4, HDAC5, HDAC6, HDAC7, HDAC8, HDAC9 and HDAC11
Test: Inhibition of histone deacetylase enzymatic activity (fluorogenic Boc-Lys(Ac)-AMC / Boc-Lys(trifluoroacetyl)-AMC substrate)
Conditions: against one or more of HDAC4, HDAC5, HDAC6, HDAC7, HDAC8, HDAC9 and HDAC11
Experimental: Inhibition of HDAC-1,2,3,6 and 8 The following protocol is used to assay the compounds of the invention. […] The compounds are pre-incubated (2 μl, in DMSO diluted to […] in buffer for transfer to assay plate) with enzyme (20 μL of 4.08 μg/mL) for 10 minutes at room temperature (35 μL pre-incubation volume). […] A plate is incubated in the dark for 10 minutes at room temperature before reading (λEx=360 nm, λEm=470 nm, Cutoff filter at 435 nm). […]
pIC50: −log10 of the molar value.

Observe how each entry below is paired with its result.
Hi! What's the reported pIC50 for O=C(NO)c1cn(Cc2ccccc2)nc1-c1ccccc1 on one or more of HDAC4, HDAC5, HDAC6, HDAC7, HDAC8, HDAC9 and HDAC11?
6.30 to 6.60

Item O=C(NO)c1sc(C2CCN(C(=O)c3ccccc3)CC2)nc1-c1ccccc1 with one or more of HDAC4, HDAC5, HDAC6, HDAC7, HDAC8, HDAC9 and HDAC11 - pIC50?
> 6.60

Lookup: pIC50 / one or more of HDAC4, HDAC5, HDAC6, HDAC7, HDAC8, HDAC9 and HDAC11 / CC(=O)Nc1ccc(S(=O)(=O)N2CCC(c3nc(-c4ccccc4)c(C(=O)NO)s3)CC2)cc1
> 6.60

***
Entry O=C(NO)c1ccc(C2=Nc3ccccc3Oc3ccccc32)cc1-c1ccccc1 , system one or more of HDAC4, HDAC5, HDAC6, HDAC7, HDAC8, HDAC9 and HDAC11: what pIC50 was measured?
> 6.60

Form field: pIC50 recorded for COc1cccc(-c2cc(C)ccc2C(=O)NO)c1 with one or more of HDAC4, HDAC5, HDAC6, HDAC7, HDAC8, HDAC9 and HDAC11 (enter value)
6.12 to 6.30

# query: pIC50 | item O=C(NO)c1sc(-c2ccc3c(c2)OCO3)nc1-c1ccccc1 | system: one or more of HDAC4, HDAC5, HDAC6, HDAC7, HDAC8, HDAC9 and HDAC11
> 6.60

Tell me reported pIC50 for O=C(NO)c1sc(-c2ccccc2)cc1-c1ccccc1 [Compound 92] , tested with one or more of HDAC4, HDAC5, HDAC6, HDAC7, HDAC8, HDAC9 and HDAC11.
> 6.60

Given the entry O=C(NO)c1ccccc1-c1cccc(-c2ccccc2)c1 , what pIC50 was observed with one or more of HDAC4, HDAC5, HDAC6, HDAC7, HDAC8, HDAC9 and HDAC11?
5.30 to 6.12

Lab request: please report pIC50 under test system one or more of HDAC4, HDAC5, HDAC6, HDAC7, HDAC8, HDAC9 and HDAC11 for O=C(NO)c1sc2ccc(NS(=O)(=O)c3cccs3)cc2c1-c1ccccc1
6.30 to 6.60
